- System: Jurkat
- test name: Cellular assay in a Fas-induced model of apoptosis in Jurkat cells
- Format: functional, cell-based
- experimental parameters: Homo sapiens
IC50 values for the compounds below.

Example compounds with recorded IC50:
| smi | IC50 |
| --- | --- |
| CC(C)[C@H](NC(=O)COc1cccc2ccccc12)C(=O)N[C@@H](CC(=O)O)C(=O)COc1ccc(Oc2ccc(C(F)(F)F)cc2)cc1 | 9.3 µM |
| CC(C)[C@H](NC(=O)COc1cccc2ccccc12)C(=O)N[C@@H](CC(=O)O)C(=O)COc1ccc2ccccc2c1 | > 100 µM |
| CC(C)[C@H](NC(=O)COc1cccc2ccccc12)C(=O)N[C@@H](CC(=O)O)C(=O)COc1ccc(F)c(F)c1F | 35.8 µM |
| CC(C)[C@H](NC(=O)COc1cccc2ccccc12)C(=O)N[C@@H](CC(=O)O)C(=O)COc1c(F)cccc1F | 2.04 µM |
| CC(C)[C@H](NC(=O)COc1cccc2ccccc12)C(=O)N[C@@H](CC(=O)O)C(=O)COc1ccc2oc(=O)sc2c1 | > 100 µM |

Reported IC50 for `CC(C)[C@H](NC(=O)COc1cccc2ccccc12)C(=O)N[C@@H](CC(=O)O)C(=O)COc1c(F)c(F)c(F)c(F)c1F` : what is it?
3.05 µM

Reported IC50 for `CC(C)[C@H](NC(=O)COc1cccc2ccccc12)C(=O)N[C@@H](CC(=O)O)C(=O)COc1ccccc1[N+](=O)[O-]` : what is it?
> 100 µM

Reported IC50 for `CC(C)[C@H](NC(=O)COc1cccc2ccccc12)C(=O)N[C@@H](CC(=O)O)C(=O)COc1ccc(F)c(F)c1` : what is it?
> 100 µM

Reported IC50 for `CC(C)[C@H](NC(=O)COc1cccc2ccccc12)C(=O)N[C@@H](CC(=O)O)C(=O)CF` : what is it?
0.24 µM

Reported IC50 for `CC(C)[C@H](NC(=O)COc1cccc2ccccc12)C(=O)N[C@@H](CC(=O)O)C(=O)COc1ccc(-c2ccccc2)cc1` : what is it?
87.9 µM

Reported IC50 for `CC(C)[C@H](NC(=O)COc1cccc2ccccc12)C(=O)N[C@@H](CC(=O)O)C(=O)COc1ccccc1F` : what is it?
> 100 µM

###

- measured on: Caspase-1 (Mus musculus)
- test name: Inhibitory activity against murine caspase-1
measurement label: k3/Ki (M⁻¹ s⁻¹)
Write the answer as a number in M⁻¹ s⁻¹, unit excluded.

Example compounds with recorded k3/Ki:
| smi | measured on | k3/Ki, M⁻¹ s⁻¹ |
| --- | --- | --- |
| CC(C)[C@H](NC(=O)COc1cccc2ccccc12)C(=O)N[C@@H](CC(=O)O)C(=O)COc1cc(F)cc(F)c1F | Caspase-1 (Mus musculus) | 14700 |
| CC(C)[C@H](NC(=O)COc1cccc2ccccc12)C(=O)N[C@@H](CC(=O)O)C(=O)COc1ccc([N+](=O)[O-])cc1F | Caspase-1 (Mus musculus) | 12300 |
| CC(C)[C@H](NC(=O)COc1cccc2ccccc12)C(=O)N[C@@H](CC(=O)O)C(=O)COc1ccc(C(N)=O)cc1 | Caspase-1 (Mus musculus) | 3650 |

Reported k3/Ki for `CC(C)[C@H](NC(=O)COc1cccc2ccccc12)C(=O)N[C@@H](CC(=O)O)C(=O)COc1cccc(C(F)(F)F)c1` : what is it?
2450

Reported k3/Ki for `CC(C)[C@H](NC(=O)COc1cccc2ccccc12)C(=O)N[C@@H](CC(=O)O)C(=O)COc1c(F)cccc1F` : what is it?
53900

Reported k3/Ki for `CC(C)[C@H](NC(=O)COc1cccc2ccccc12)C(=O)N[C@@H](CC(=O)O)C(=O)COc1ccc(C#N)cc1` : what is it?
3720

Reported k3/Ki for `CC(C)[C@H](NC(=O)COc1cccc2ccccc12)C(=O)N[C@@H](CC(=O)O)C(=O)COc1ccc(C(F)(F)F)cc1` : what is it?
2580

###

- Tested on: Jurkat
- test name: Cellular assay in a Fas-induced model of apoptosis in Jurkat cells
- Assay type: functional, cell-based
- experimental parameters: Homo sapiens
pIC50: −log10 of the molar value.
pIC50 values for the molecules below.

Example molecules with recorded pIC50:
| smi | measurement label | result |
| --- | --- | --- |
| CC(C)[C@H](NC(=O)COc1cccc2ccccc12)C(=O)N[C@@H](CC(=O)O)C(=O)COc1ccc(F)cc1 | pIC50 | < 4.00 |
| CC(=O)Nc1cccc(OCC(=O)[C@H](CC(=O)O)NC(=O)[C@@H](NC(=O)COc2cccc3ccccc23)C(C)C)c1 | pIC50 | < 4.00 |
| CC(C)[C@H](NC(=O)COc1cccc2ccccc12)C(=O)N[C@@H](CC(=O)O)C(=O)COc1ccc(C(N)=O)cc1 | pIC50 | < 4.00 |
| CC(C)[C@H](NC(=O)COc1cccc2ccccc12)C(=O)N[C@@H](CC(=O)O)C(=O)COc1ccc([N+](=O)[O-])cc1 | pIC50 | < 4.00 |
| CC(C)[C@H](NC(=O)COc1cccc2ccccc12)C(=O)N[C@@H](CC(=O)O)C(=O)COc1cc(F)ccc1F | pIC50 | < 4.00 |
| CC(C)[C@H](NC(=O)COc1cccc2ccccc12)C(=O)N[C@@H](CC(=O)O)C(=O)COc1cccc(C(F)(F)F)c1 | pIC50 | < 4.00 |

Note: attention shifts to another entry.
Reported pIC50 for `CC(C)[C@H](NC(=O)COc1cccc2ccccc12)C(=O)N[C@@H](CC(=O)O)C(=O)COc1cccc(OC(F)(F)F)c1` : what is it?
< 4.00
